- System: Escherichia coli TOP10
- assay text: shrunken log2 fold change of peptide-encoding DNA abundance (4.5 h post-induction vs induction); higher = less antimicrobial activity (less host growth inhibition)
- experimental setup: time post-induction: 4.5 h; library: site-saturation at positions 5, 18, 19, 20
reported metric: shrunken log2 fold change
Answer as a number with no unit attached.

// solved cases for shrunken log2 fold change follow
{"columns": ["sequence content", "recorded measurement"],
 "data": [
  ["RRIRIRPPRLPRPRPRPMQAPRP", -0.00238],
  ["RRIRSRPPRLPRPRPRPTRPPRP", 0.645],
  ["RRIRSRPPRLPRPRPRPWHLPRP", -0.273]
]}

Enter reported shrunken log2 fold change observed with Escherichia coli TOP10 for "RRIRHRPPRLPRPRPRPCCTPRP"
-0.181

And what about the sequence "RRIRERPPRLPRPRPRPCQSPRP" ?
-0.127

And what about the sequence "RRIRIRPPRLPRPRPRPWQHPRP" ?
0.0851

And what about the sequence "RRIRARPPRLPRPRPRPHAAPRP" ?
0.635

----------
- System: Escherichia coli TOP10
- assay text: shrunken log2 fold change of peptide-encoding DNA abundance (4.5 h post-induction vs induction); higher = less antimicrobial activity (less host growth inhibition)
- experimental setup: time post-induction: 4.5 h; library: site-saturation at positions 5, 18, 19, 20
reported metric: shrunken log2 fold change
Answer as a number with no unit attached.

// solved cases for shrunken log2 fold change follow
{"columns": ["sequence content", "reported metric", "recorded measurement"],
 "data": [
  ["RRIRDRPPRLPRPRPRPCVFPRP", "shrunken log2 fold change", 0.37],
  ["RRIRSRPPRLPRPRPRPVGNPRP", "shrunken log2 fold change", -0.0399],
  ["RRIRWRPPRLPRPRPRPFSTPRP", "shrunken log2 fold change", -0.14]
]}

Now for another entry.
Enter reported shrunken log2 fold change observed with Escherichia coli TOP10 for "RRIRNRPPRLPRPRPRPQLRPRP"
0.0493

----------
sequences and their reported shrunken log2 fold change
- Test system: Escherichia coli TOP10
- assay text: shrunken log2 fold change of peptide-encoding DNA abundance (4.5 h post-induction vs induction); higher = less antimicrobial activity (less host growth inhibition)
- experimental setup: time post-induction: 4.5 h; library: site-saturation at positions 5, 18, 19, 20
Answer as a number with no unit attached.

// solved cases for shrunken log2 fold change follow
{"columns": ["sequence content", "shrunken log2 fold change"],
 "data": [
  ["RRIRDRPPRLPRPRPRPHASPRP", 0.178],
  ["RRIRGRPPRLPRPRPRPGPVPRP", 1.24]
]}

Now for another entry.
Enter reported shrunken log2 fold change observed with Escherichia coli TOP10 for "RRIRERPPRLPRPRPRPVDHPRP"
-0.195

----------
- Test system: Escherichia coli TOP10
- assay text: shrunken log2 fold change of peptide-encoding DNA abundance (4.5 h post-induction vs induction); higher = less antimicrobial activity (less host growth inhibition)
- experimental setup: time post-induction: 4.5 h; library: site-saturation at positions 5, 18, 19, 20
# shrunken log2 fold change binned as lower level (below -0.05), middle level (-0.05 to below 0.09), upper level (0.09 or more)

Before answering, review these 5 worked examples.
{"columns": ["sequence content", "category label"],
 "data": [
  ["RRIRLRPPRLPRPRPRPCLEPRP", "lower level"],
  ["RRIRRRPPRLPRPRPRPSRSPRP", "upper level"],
  ["RRIRVRPPRLPRPRPRPATGPRP", "upper level"],
  ["RRIRERPPRLPRPRPRPGALPRP", "upper level"],
  ["RRIRHRPPRLPRPRPRPRQLPRP", "middle level"]
]}

Exam item: assign "RRIRKRPPRLPRPRPRPKGQPRP" to the correct category.
middle level

And what about the sequence "RRIRYRPPRLPRPRPRPGNAPRP" ?
middle level

And what about the sequence "RRIRHRPPRLPRPRPRPETDPRP" ?
lower level

And what about the sequence "RRIRGRPPRLPRPRPRPTIIPRP" ?
middle level

And what about the sequence "RRIRMRPPRLPRPRPRPVYHPRP" ?
lower level

And what about the sequence "RRIRYRPPRLPRPRPRPYQMPRP" ?
lower level

And what about the sequence "RRIRRRPPRLPRPRPRPQQFPRP" ?
middle level

And what about the sequence "RRIRQRPPRLPRPRPRPLCWPRP" ?
middle level

And what about the sequence "RRIRERPPRLPRPRPRPHWTPRP" ?
middle level

And what about the sequence "RRIRQRPPRLPRPRPRPSVVPRP" ?
middle level

And what about the sequence "RRIRTRPPRLPRPRPRPDFQPRP" ?
middle level

And what about the sequence "RRIRVRPPRLPRPRPRPQGMPRP" ?
lower level

And what about the sequence "RRIRQRPPRLPRPRPRPAAMPRP" ?
upper level

----------
- Test system: Escherichia coli TOP10
- assay text: shrunken log2 fold change of peptide-encoding DNA abundance (4.5 h post-induction vs induction); higher = less antimicrobial activity (less host growth inhibition)
- experimental setup: time post-induction: 4.5 h; library: site-saturation at positions 5, 18, 19, 20
# shrunken log2 fold change binned as Low (below -0.07), Medium (-0.07 to below 0.2), High (0.2 or more)

Before answering, review these 6 worked examples.
{"columns": ["sequence content", "category label"],
 "data": [
  ["RRIRCRPPRLPRPRPRPRDPPRP", "High"],
  ["RRIRCRPPRLPRPRPRPREEPRP", "High"],
  ["RRIRTRPPRLPRPRPRPRHYPRP", "Low"],
  ["RRIRARPPRLPRPRPRPWPRPRP", "High"],
  ["RRIRWRPPRLPRPRPRPSPTPRP", "Medium"],
  ["RRIRVRPPRLPRPRPRPLNWPRP", "High"]
]}

Exam item: assign "RRIRMRPPRLPRPRPRPCCEPRP" to the correct category.
Medium

And what about the sequence "RRIRLRPPRLPRPRPRPLTVPRP" ?
Medium

And what about the sequence "RRIRVRPPRLPRPRPRPGDIPRP" ?
Low

And what about the sequence "RRIRYRPPRLPRPRPRPGGYPRP" ?
Medium

And what about the sequence "RRIRERPPRLPRPRPRPYMMPRP" ?
Low

----------
- Test system: Escherichia coli TOP10;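 also: peptides expressed intracellularly from a pBAD plasmid library in pooled LB shake-flask culture, induced with 0.3% L-arabinose, DNA abundance read by NGS, three biological replicates, DESeq2 with apeglm shrinkage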
- assay text: shrunken log2 fold change of peptide-encoding DNA abundance (4.5 h post-induction vs induction); higher = less antimicrobial activity (less host growth inhibition)
- experimental setup: time post-induction: 4.5 h; library: site-saturation at positions 5, 18, 19, 20
reported metric: shrunken log2 fold change
Answer as a number with no unit attached.

// solved cases for shrunken log2 fold change follow
{"columns": ["sequence content", "reported metric", "recorded measurement"],
 "data": [
  ["RRIRWRPPRLPRPRPRPYHKPRP", "shrunken log2 fold change", -0.118],
  ["RRIRRRPPRLPRPRPRPRHWPRP", "shrunken log2 fold change", 0.551]
]}

Enter reported shrunken log2 fold change observed with Escherichia coli TOP10 for "RRIRHRPPRLPRPRPRPRWPPRP"
2.25

And what about the sequence "RRIRVRPPRLPRPRPRPPVIPRP" ?
-0.101

And what about the sequence "RRIRVRPPRLPRPRPRPHSPPRP" ?
-0.0205

And what about the sequence "RRIRGRPPRLPRPRPRPNCGPRP" ?
0.0147

And what about the sequence "RRIRLRPPRLPRPRPRPYNGPRP" ?
-0.103

And what about the sequence "RRIRNRPPRLPRPRPRPTMEPRP" ?
0.274

And what about the sequence "RRIRSRPPRLPRPRPRPDFPPRP" ?
0.0768

And what about the sequence "RRIRIRPPRLPRPRPRPMKGPRP" ?
-0.0335

And what about the sequence "RRIRERPPRLPRPRPRPEKQPRP" ?
-0.00177

And what about the sequence "RRIRWRPPRLPRPRPRPCDGPRP" ?
0.0333

And what about the sequence "RRIRPRPPRLPRPRPRPQRMPRP" ?
0.209

And what about the sequence "RRIRQRPPRLPRPRPRPNETPRP" ?
-0.0269

And what about the sequence "RRIRLRPPRLPRPRPRPTWHPRP" ?
0.174

And what about the sequence "RRIRNRPPRLPRPRPRPRSQPRP" ?
-0.0986

And what about the sequence "RRIRDRPPRLPRPRPRPIQYPRP" ?
-0.0088

And what about the sequence "RRIRPRPPRLPRPRPRPTDNPRP" ?
-0.134

And what about the sequence "RRIRARPPRLPRPRPRPWQGPRP" ?
0.0405

And what about the sequence "RRIRDRPPRLPRPRPRPHHQPRP" ?
-0.0302

And what about the sequence "RRIRNRPPRLPRPRPRPEIMPRP" ?
0.0538

And what about the sequence "RRIRGRPPRLPRPRPRPDGPPRP" ?
0.155

And what about the sequence "RRIRGRPPRLPRPRPRPNNVPRP" ?
-0.131
